# tgt: T1, interleukin 18 binding protein (IL-18BP) (UniProt O95998 31-194)
# T1 sequence (looked up): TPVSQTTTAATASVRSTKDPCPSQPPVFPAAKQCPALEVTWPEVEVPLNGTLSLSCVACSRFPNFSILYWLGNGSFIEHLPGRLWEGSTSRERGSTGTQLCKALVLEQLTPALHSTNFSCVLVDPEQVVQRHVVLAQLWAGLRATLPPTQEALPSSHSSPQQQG
# experimental-details: cell-based or functional assay
assay-metric: EC50 (pM) + 300 nM BP, HEK-blue re-screening
The answer is to be given in pM; state only the numeric part.

IL-18 variant G3P, E6K, D54Y, S55P, T63S, N91S, R104Q (ligand) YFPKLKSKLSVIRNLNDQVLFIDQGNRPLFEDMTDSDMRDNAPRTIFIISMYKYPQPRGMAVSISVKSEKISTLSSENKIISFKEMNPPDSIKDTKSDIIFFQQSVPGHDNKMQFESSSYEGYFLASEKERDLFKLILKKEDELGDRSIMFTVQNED ... 1.18
IL-18 variant G3Q, E6Q, K53T, D54W, S55F, N91Y (ligand) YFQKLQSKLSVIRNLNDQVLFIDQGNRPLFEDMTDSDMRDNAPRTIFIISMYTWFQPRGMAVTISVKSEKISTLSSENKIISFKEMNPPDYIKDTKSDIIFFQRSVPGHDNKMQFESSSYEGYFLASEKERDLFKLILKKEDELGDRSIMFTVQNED ... 2.54

// moving on: another record for EC50 (pM) + 300 nM BP, HEK-blue re-screening
Query string: I would be grateful if you could share the reported EC50 (pM) + 300 nM BP, HEK-blue re-screening for IL-18 variant G3L, E6Y, D54T, T63S, N91Y, R104Q (ligand) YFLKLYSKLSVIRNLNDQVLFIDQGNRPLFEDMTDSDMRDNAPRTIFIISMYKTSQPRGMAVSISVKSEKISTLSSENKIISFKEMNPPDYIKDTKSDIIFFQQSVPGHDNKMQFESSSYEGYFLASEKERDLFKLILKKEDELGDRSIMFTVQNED .
Result string: 0.37

Origin of values: patent US20240182536A1
